All figures here come from ChEMBL document CHEMBL5233262.

system: Mus musculus; assay: Antiinflammatory activity in TPA-induced ear edema ICR mouse model assessed as inhibition of ear inflammation at 1 ug, TOP for 30 mins followed by TPA addition and measured after 6 hrs; type: functional; settings: dose 1 µg, time 390 min, 6.5 h
ID50 listing for selected compounds.
Give your result as the value with the unit written after it.

compoundSmiles | ID50
O=C(CCc1ccccc1)C[C@H](O)CCc1ccccc1 | 2.1 µmol
CO[C@@H](CCc1ccccc1)CC(=O)CCc1ccccc1 | 2.7 µmol
COc1ccc2c(c1)c(CC(=O)O)c(C)n2C(=O)c1ccc(Cl)cc1 | 0.9 µmol
COc1cc(CC/C=C/C(=O)CCc2ccccc2)ccc1O | 2.2 µmol

Prompt line: What measured ID50 goes with "O=C(/C=C/CCc1ccc(O)cc1)CCc1ccccc1" ?
Response line: 0.8 µmol

Prompt line: What measured ID50 goes with "O=C(/C=C/CCc1ccccc1)CCc1ccccc1" ?
Response line: 2.7 µmol
